# Test system: HCC-2998 colon
# experimental protocol: NCI-60 one-dose screen, 48 h
# condition notes: 10 µM unless noted
The panel holds about 83,000 compounds, 20% with a hit somewhere; the sample as a whole holds those more often. Activity calls are given as the source filed them. The calls were made as follows: active = growth percent below 10; inactive = the rest.
Your reply should match one of these outcome classes. active, inactive

Answer briefly: the call reported for c1ccc2cc(C[n+]3ccn(CCCCCCCn4cc[n+](Cc5ccc6ccccc6c5)c4)c3)ccc2c1 in this assay.
inactive

Answer briefly: the call reported for Cc1ccc(NC(=O)CSc2nnc3n(Cc4ccccc4)c(=O)c4c(C)c(C(N)=O)sc4n23)cc1 in this assay.
inactive

Answer briefly: the call reported for Cc1ccc([N+](=O)[O-])cc1NC(=O)Nc1cccc(F)c1 in this assay.
inactive

Answer briefly: the call reported for CCCCCCCC/C=C/CCCCCCCC1=NC(C)(C)CN1CC(C)O (stereo not given) in this assay.
active

Answer briefly: the call reported for Nc1ccc(S(=O)(=O)Nc2ncccn2)cc1 in this assay.
inactive

Sourced from PubChem BioAssay (NCI)
